biological target: α-glucosidase (Saccharomyces cerevisiae)
pIC50: −log10 of the molar value.
MEASURED_ATTRIBUTE: pIC50

COMPOUND | VAL
O=C(/C=C/c1ccc(O)c(O)c1)O[C@H](Cc1ccc(O)c(O)c1)C(=O)O [RA, rosmarinic acid] | < 3.70
O=C(/C=C/c1ccc(O)c(O)c1/C=C/c1ccc(O)c(O)c1)O[C@H](Cc1ccc(O)c(O)c1)C(=O)O [SAA, salvianolic acid A] | 4.71
O=C(/C=C/c1ccc(O)c2c1[C@H](C(=O)O)[C@@H](c1ccc(O)c(O)c1)O2)O[C@H](Cc1ccc(O)c(O)c1)C(=O)O [LA, lithospermic acid] | < 4.00
O=C(O)/C=C/c1ccc(O)c(O)c1 [CA, caffeic acid] | < 4.00

* * *

target: α-glucosidase (Saccharomyces cerevisiae, UniProt P53341)
Sequence (P53341 whole entry): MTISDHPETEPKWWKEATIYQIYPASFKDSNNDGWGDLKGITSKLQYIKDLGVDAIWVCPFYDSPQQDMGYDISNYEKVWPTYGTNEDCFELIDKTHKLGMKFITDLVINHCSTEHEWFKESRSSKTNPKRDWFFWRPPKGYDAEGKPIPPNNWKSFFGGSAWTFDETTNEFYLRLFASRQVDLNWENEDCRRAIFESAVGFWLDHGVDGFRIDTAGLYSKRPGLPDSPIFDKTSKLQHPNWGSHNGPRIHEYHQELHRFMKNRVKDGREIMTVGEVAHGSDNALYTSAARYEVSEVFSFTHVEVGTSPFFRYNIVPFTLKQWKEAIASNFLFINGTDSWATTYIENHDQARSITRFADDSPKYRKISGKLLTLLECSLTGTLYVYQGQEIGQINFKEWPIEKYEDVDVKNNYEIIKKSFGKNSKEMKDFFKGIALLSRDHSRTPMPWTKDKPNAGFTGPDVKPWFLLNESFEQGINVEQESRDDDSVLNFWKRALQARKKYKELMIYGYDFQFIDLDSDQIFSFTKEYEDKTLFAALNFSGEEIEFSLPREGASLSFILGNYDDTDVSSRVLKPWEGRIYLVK
pKi: −log10 of the molar value.

COMPOUND | MEASUREMENT_TARGET | pKi
O=C(/C=C/c1ccc(O)c(O)c1/C=C/c1ccc(O)c(O)c1)O[C@H](Cc1ccc(O)c(O)c1)C(=O)O [SAA, salvianolic acid A] | α-glucosidase (Saccharomyces cerevisiae, UniProt P53341) | 4.67
